Would you kindly list protein stability index for each of these sequences?
Assay: protein stability index of a GFP-peptide fusion (yeast GPS) (PSI 1-4); higher = more stable; sorted into four equal gates, so the index is relative within each strain
Conditions: san1∆
Kindly provide the number alone.

Asked: I would be grateful if you could share the reported protein stability index for TARINNRRLFKKCIDFF [RRI2] .
Given back: 1.91

Asked: I would be grateful if you could share the reported protein stability index for PTKLLVSEVAKIMQEAT [PRE8] .
Given back: 2.72

Asked: I would be grateful if you could share the reported protein stability index for MVCETDVPSEDDPTQLV [RPO21] .
Given back: 3.37

Asked: I would be grateful if you could share the reported protein stability index for ADNGEEYLTLNDFNDLN [MED2] .
Given back: 3.55

Asked: I would be grateful if you could share the reported protein stability index for EKSTQLQQKHELDTASR [YGR119C/NUP57] .
Given back: 2.85

Asked: I would be grateful if you could share the reported protein stability index for FQAQQAQQAQQAQQAQQ [SNF2] .
Given back: 2.85

Asked: I would be grateful if you could share the reported protein stability index for TTVYRYSAAKKIPDTYT [YAR002W/NUP60] .
Given back: 1.42

Asked: I would be grateful if you could share the reported protein stability index for KTYNKLHYCVSCAIHAR [RPS26A] .
Given back: 1.31

Asked: I would be grateful if you could share the reported protein stability index for IVDFTLPPPPPPPGLDE [PRP8] .
Given back: 3.2

Asked: I would be grateful if you could share the reported protein stability index for ALLTVLKALSHHYNPKT [BRR2] .
Given back: 1.91

Asked: I would be grateful if you could share the reported protein stability index for KLHMGTEDVRLAPELNQ [RPL31B] .
Given back: 2.86

Asked: I would be grateful if you could share the reported protein stability index for QLNKVVDQLFEKASVLY [RPN6] .
Given back: 2.62

Asked: I would be grateful if you could share the reported protein stability index for GNLSGKRVDFSGRTVIS [RPO31] .
Given back: 3.36

Asked: I would be grateful if you could share the reported protein stability index for DFRTRYIDIRTNNVLRK [MTW1] .
Given back: 2.43

Asked: I would be grateful if you could share the reported protein stability index for KNMGLVPMKEENLEESF [SSN2] .
Given back: 2.95

Asked: I would be grateful if you could share the reported protein stability index for NNGSSDKSLDSSNASFN [MED1] .
Given back: 3.08

Asked: I would be grateful if you could share the reported protein stability index for YARFKNDFFPGEVVYLR [ITC1] .
Given back: 2.58

Asked: I would be grateful if you could share the reported protein stability index for MTAAVTSSNIVLETHES [RPT6] .
Given back: 2.79

Asked: I would be grateful if you could share the reported protein stability index for KHYKNIPRNSPLSDLKK [RPC82] .
Given back: 2.59

Asked: I would be grateful if you could share the reported protein stability index for HIAHTLPEKVNFRTMQQ [SSN2] .
Given back: 2.83

Asked: I would be grateful if you could share the reported protein stability index for KKMVYVLDSMTKEELES [SRP54] .
Given back: 2.92

Asked: I would be grateful if you could share the reported protein stability index for VINKLDRLILDLKLPPM [SNU114] .
Given back: 1.06

Asked: I would be grateful if you could share the reported protein stability index for ALRRRVGPSEQNFAEED [REC8] .
Given back: 3.39

Asked: I would be grateful if you could share the reported protein stability index for PKQSDEYLKRVSVPVSG [SIR3] .
Given back: 2.81

Asked: I would be grateful if you could share the reported protein stability index for KVKAGVRSANEDGTFSV [RRP43] .
Given back: 3.48

Asked: I would be grateful if you could share the reported protein stability index for ESELSLLEETQAKLKKN [SMC4] .
Given back: 2.88

Asked: I would be grateful if you could share the reported protein stability index for SPNPTLQPVIPGGAASK [SNF5] .
Given back: 3.19

Asked: I would be grateful if you could share the reported protein stability index for SRDLDISSSTQCLRFLK [POP6] .
Given back: 2.7

Asked: I would be grateful if you could share the reported protein stability index for LKHYNGYDINYISKIGE [SWI1] .
Given back: 2.07

Asked: I would be grateful if you could share the reported protein stability index for LLIRSKTEDPKGGIIAS [YML031W/NDC1] .
Given back: 2.28

Origin of values: the supplement of paper PMC9732359
